Target: Human Cav 2.2 channels (Homo sapiens)
Sequence (Q00975 whole entry): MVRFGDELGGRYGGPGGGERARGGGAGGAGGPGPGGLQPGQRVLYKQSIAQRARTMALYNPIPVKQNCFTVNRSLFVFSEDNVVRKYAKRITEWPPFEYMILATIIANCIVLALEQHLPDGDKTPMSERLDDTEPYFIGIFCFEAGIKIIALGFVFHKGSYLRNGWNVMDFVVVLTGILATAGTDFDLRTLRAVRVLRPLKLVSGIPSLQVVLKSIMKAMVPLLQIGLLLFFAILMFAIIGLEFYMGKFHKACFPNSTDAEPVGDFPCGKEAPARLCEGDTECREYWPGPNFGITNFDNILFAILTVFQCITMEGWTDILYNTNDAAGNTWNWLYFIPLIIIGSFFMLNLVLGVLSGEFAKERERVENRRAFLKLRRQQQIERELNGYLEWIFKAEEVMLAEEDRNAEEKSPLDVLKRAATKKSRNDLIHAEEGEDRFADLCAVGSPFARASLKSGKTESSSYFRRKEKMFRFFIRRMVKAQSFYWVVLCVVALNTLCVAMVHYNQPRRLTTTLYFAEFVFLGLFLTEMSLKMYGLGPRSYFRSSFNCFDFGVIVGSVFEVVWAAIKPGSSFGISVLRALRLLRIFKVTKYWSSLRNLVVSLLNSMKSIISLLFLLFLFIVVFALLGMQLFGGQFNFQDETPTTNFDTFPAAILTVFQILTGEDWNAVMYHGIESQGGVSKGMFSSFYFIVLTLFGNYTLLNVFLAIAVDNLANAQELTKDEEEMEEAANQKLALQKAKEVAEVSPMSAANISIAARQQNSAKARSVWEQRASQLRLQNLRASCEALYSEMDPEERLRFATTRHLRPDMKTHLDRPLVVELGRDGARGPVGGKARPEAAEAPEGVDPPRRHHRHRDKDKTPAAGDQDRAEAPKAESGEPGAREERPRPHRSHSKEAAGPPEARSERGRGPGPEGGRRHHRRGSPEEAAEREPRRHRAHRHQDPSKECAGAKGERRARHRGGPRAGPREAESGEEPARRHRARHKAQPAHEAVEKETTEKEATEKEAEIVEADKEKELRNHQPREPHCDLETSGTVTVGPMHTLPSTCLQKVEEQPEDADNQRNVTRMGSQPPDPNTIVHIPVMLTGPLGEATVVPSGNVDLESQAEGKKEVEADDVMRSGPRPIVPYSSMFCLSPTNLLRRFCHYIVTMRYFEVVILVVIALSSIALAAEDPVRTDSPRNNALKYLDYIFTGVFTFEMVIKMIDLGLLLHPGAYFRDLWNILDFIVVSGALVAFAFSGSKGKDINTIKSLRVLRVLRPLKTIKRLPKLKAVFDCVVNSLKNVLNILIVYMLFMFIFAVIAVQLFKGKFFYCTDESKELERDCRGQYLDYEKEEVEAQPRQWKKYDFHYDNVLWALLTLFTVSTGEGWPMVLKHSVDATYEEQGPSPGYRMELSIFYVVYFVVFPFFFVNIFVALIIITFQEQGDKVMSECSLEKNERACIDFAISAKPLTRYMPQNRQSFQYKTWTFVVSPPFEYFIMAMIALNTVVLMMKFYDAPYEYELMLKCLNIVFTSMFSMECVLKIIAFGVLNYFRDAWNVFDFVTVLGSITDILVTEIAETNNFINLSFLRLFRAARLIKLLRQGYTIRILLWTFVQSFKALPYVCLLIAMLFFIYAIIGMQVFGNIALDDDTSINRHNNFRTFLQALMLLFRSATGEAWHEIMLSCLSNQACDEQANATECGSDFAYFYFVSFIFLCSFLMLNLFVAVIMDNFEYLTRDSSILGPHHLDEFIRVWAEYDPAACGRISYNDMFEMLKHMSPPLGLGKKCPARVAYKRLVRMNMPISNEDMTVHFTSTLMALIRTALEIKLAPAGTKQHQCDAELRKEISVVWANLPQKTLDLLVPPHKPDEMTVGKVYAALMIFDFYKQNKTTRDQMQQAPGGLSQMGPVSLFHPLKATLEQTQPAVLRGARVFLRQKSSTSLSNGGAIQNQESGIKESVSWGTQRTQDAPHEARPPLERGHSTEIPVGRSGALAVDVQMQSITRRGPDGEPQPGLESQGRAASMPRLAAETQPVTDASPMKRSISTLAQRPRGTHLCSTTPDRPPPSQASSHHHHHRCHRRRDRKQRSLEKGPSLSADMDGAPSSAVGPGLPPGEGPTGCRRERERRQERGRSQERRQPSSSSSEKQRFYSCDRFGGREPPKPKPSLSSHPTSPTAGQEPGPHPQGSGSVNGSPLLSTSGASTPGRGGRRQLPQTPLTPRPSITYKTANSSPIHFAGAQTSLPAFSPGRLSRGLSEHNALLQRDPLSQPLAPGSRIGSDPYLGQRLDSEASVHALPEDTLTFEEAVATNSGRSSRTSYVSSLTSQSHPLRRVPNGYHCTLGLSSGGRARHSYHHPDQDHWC
Sequence (P54289 25-1103 partner): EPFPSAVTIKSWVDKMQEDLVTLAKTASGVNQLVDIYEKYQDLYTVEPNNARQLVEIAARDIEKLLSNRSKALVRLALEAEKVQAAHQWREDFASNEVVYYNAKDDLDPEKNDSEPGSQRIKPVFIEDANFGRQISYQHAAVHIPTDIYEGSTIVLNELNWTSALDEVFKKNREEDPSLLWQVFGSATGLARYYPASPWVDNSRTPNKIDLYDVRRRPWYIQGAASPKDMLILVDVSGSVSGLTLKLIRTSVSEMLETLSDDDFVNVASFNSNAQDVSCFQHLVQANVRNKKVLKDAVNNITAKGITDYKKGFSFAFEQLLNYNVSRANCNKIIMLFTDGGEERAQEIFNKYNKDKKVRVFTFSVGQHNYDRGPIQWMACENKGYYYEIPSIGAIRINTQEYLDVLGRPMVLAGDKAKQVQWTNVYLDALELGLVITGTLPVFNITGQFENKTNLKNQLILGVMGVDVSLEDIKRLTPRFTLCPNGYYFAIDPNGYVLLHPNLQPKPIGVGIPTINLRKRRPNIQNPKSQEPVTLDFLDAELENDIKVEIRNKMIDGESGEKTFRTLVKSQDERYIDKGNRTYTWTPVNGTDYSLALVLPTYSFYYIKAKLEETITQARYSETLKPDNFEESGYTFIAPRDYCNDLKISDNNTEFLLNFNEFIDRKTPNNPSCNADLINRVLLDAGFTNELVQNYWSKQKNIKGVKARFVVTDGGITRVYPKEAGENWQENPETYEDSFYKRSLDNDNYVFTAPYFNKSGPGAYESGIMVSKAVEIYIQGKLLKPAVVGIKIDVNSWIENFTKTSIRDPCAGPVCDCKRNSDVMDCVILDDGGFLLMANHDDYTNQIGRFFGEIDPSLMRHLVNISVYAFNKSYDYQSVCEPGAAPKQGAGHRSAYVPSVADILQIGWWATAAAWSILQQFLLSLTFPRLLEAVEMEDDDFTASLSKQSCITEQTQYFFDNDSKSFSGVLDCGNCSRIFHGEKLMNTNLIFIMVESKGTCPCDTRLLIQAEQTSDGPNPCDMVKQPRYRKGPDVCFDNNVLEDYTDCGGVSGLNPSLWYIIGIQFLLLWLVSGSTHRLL
Sequence (P54284 whole entry partner): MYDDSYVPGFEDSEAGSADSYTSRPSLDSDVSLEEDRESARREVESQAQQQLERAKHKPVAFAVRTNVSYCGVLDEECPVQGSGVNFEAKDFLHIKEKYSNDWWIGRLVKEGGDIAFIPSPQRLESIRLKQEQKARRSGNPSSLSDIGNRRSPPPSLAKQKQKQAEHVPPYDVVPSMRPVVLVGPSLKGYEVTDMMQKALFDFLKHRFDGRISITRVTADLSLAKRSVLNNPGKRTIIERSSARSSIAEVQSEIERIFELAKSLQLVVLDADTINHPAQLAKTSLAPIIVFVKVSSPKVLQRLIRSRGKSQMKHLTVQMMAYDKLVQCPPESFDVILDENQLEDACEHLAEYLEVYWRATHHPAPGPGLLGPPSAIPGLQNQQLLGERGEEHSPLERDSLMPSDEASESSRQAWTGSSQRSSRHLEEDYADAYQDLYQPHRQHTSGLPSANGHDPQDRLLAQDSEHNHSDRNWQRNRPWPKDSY
Assay: Fluorescent assay for CaV2.2 channels using potassium depolarization (VIPR/FLIPR)
Format: cell-based
Conditions: FLIPR data; inactivated state; read-out: CAv2.2 IC50 Inact.
IC50 values by entry

Look over these answered cases.
substanceSmiles	testedOn	val
Cc1nc(S(=O)(=O)N[C@H]2C[C@@H](C(C)(C)S(=O)(=O)c3cc(F)cc(C(F)(F)F)c3)C2)cn1C	Human Cav 2.2 channels (Homo sapiens)	4380 nM
CC(C)(C[C@H]1C[C@@H](NC(=O)c2ncc(C(F)(F)F)cc2S(C)(=O)=O)C1)S(=O)(=O)c1cccc(C(F)(F)F)c1	Human Cav 2.2 channels (Homo sapiens)	460 nM

Let's switch to this compound now.
Give reported IC50 value for CC(C)([C@H]1C[C@@H](CNc2cc(C(F)(F)F)n[nH]2)C1)S(=O)(=O)c1cccc(C(F)(F)F)c1
750 nM
